Target: Calpain-1 catalytic subunit (Homo sapiens)
Sequence (P07384 whole entry): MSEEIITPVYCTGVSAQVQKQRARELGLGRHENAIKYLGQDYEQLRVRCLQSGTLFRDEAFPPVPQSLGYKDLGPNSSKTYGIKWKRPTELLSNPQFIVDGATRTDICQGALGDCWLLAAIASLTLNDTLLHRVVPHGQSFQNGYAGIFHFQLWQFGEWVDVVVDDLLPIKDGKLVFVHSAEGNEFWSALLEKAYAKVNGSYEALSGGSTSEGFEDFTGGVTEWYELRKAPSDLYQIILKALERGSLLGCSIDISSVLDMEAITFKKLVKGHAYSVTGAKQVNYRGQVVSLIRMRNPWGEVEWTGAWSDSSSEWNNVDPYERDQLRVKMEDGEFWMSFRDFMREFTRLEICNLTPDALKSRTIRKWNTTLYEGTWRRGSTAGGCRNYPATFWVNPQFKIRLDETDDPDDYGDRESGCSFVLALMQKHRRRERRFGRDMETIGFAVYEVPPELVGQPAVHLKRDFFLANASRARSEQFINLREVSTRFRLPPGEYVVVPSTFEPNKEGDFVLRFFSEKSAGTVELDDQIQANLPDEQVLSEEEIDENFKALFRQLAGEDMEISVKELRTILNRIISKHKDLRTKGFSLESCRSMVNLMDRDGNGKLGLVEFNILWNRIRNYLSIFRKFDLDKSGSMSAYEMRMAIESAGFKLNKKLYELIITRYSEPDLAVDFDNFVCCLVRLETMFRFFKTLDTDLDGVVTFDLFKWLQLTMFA
Test: Inhibitory activity evaluated against recombinant human calpain 1
pIC50: −log10 of the molar value. Non-standard residues stand in square brackets, D forms with d. Residues, ends and D or L forms follow the SMILES beside them. *: point of attachment. Cha = N[C@@H](CC1CCCCC1)C(=O)O; Tle = CC(C)(C)[C@H](N)C(=O)O; Cbz = O=C(OCc1ccccc1)*; Boc = CC(C)(C)OC(=O)*; Bn = c1ccc(C*)cc1
reported_endpoint: pIC50

Answered cases to consult:
> print(dat)
                                   compound                             system.tested  reported.endpoint  experimental.value
1  CC(C)C[C@H](NC(=O)OCc1ccccc1)C(=O)NCC=O (Cbz-Leu-Gly-aldehyde)  Calpain-1 catalytic subunit (Homo sapiens)              pIC50                6.52
2  CC(=O)N[C@@H](CC(C)C)C(=O)N[C@@H](CC(C)C)C(=O)N[C@H](C=O)CCCNC(=N)N  Calpain-1 catalytic subunit (Homo sapiens)              pIC50                7.14
3  CC(=O)N[C@@H](CC(C)C)C(=O)N[C@@H](CC(C)C)C(=O)N[C@H](C=O)CC(C)C  Calpain-1 catalytic subunit (Homo sapiens)              pIC50                7.82
4  CC(C)C[C@@H](C=O)NC(=O)[C@H](Cc1c[nH]c2ccccc12)NC(=O)[C@H](CC(C)C)NC(=O)OCc1ccccc1 (Cbz-Leu-Trp-Leu-aldehyde)  Calpain-1 catalytic subunit (Homo sapiens)              pIC50                7.35
5  CC(C)C[C@@H](C=O)NC(=O)[C@H](CC1CCCCC1)NC(=O)OCc1ccccc1 (Cbz-[Cha]-Leu-aldehyde)  Calpain-1 catalytic subunit (Homo sapiens)              pIC50                6.24
6  CC(C)C[C@H](NC(=O)OCc1ccccc1)C(=O)N[C@@H](C)C=O (Cbz-Leu-Ala-aldehyde)  Calpain-1 catalytic subunit (Homo sapiens)              pIC50                6.92
7  CC(C)C[C@H](NC(=O)OCc1ccccc1)C(=O)N[C@H](C=O)Cc1ccccc1 (Cbz-Leu-Phe-aldehyde)  Calpain-1 catalytic subunit (Homo sapiens)              pIC50                8.00

P. CC(C)C[C@H](NC(=O)OCc1ccccc1)C(=O)N[C@H](C=O)Cc1ccc(OCc2ccccc2)cc1 (Cbz-Leu-Tyr(Bn)-aldehyde)
Q. CC(=O)N[C@@H](CC(C)C)C(=O)N[C@@H](CC(C)C)C(=O)N[C@H](C=O)CCCCNC(=O)OC(C)(C)C (Ac-Leu-Leu-Lys(Boc)-aldehyde)
R. CC(=O)N[C@H](C(=O)N[C@@H](Cc1ccccc1)C(=O)N[C@H](C=O)CC(C)C)C(C)C (Ac-Val-Phe-Leu-aldehyde)
S. CC(C)C[C@@H](C=O)NC(=O)[C@@H](NC(=O)OCc1ccccc1)C(C)(C)C (Cbz-[Tle]-Leu-aldehyde)
T. CC(C)C[C@@H](C=O)NC(=O)[C@H](Cc1ccccc1)NC(=O)OCc1ccccc1 (Cbz-Phe-Leu-aldehyde)
Ask | Rank ascending by pIC50. Note for the reader: the ranking is given by listing the labels in the order requested.
Reply | T, R, Q, P, S
